FYI, the data here is from the supplement of paper PMC8728848.

Parameter glycan array binding signal (z-score): see the listing below.
target: Gal(b1-2)Gal
method: glycan array binding signal (z-score within array); higher = stronger binding
study-conditions: glycan notation: IUPAC condensed, linker removed
Only a selection was taken, and the strongest signals are over-represented in it overall.
experimental-endpoint: glycan array binding signal (z-score)

>>> quantitative_readout("Gal 8 (Homo sapiens), O00214_1 (protein) MMLSLNNLQNIIYNPVIPFVGTIPDQLDPGTLIVIRGHVPSDADRFQVDLQNGSSMKPRADVAFHFNPRFKRAGCIVCNTLINEKWGREEITYDTPFKREKSFEIVIMVLKDKFQVAVNGKHTLLYGHRIGPEKIDTLGIYGKVNIHSIGFSFSSDLQSTQASSLELTEISRENVPKSGTPQLRLPFAARLNTPMGPGRTVVVKGEVNANAKSFNVDLLAGKSKDIALHLNPRLNIKAFVRNSFLQESWGEEERNITSFPFSPGMYFEMIIYCDVREFKVAVNGVHSLEYKHRFKELSSIDTLEINGDIHLLEVRSW")
-0.201
>>> quantitative_readout("SynCAM (Mus musculus) (protein) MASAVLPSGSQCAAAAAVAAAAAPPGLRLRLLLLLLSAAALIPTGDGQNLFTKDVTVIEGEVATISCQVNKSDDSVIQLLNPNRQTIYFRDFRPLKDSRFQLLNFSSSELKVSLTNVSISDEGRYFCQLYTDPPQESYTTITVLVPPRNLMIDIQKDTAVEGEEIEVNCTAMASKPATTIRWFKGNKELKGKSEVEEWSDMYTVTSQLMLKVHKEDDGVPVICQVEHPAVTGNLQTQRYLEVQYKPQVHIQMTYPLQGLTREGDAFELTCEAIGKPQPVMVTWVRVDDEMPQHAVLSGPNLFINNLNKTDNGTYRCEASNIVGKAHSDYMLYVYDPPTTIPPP")
0.521
